Where these numbers come from: the supplement of paper PMC13380429

# System: U2OS
# assay_info: cell viability relative to DMSO; higher = less toxic
# details: 72 h; 10000 nM
We begin with a simple list: items and their reported cell viability.
quantity_measured: cell viability (%)

Clc1cc(Cl)c(OCC#CI)cc1Cl [haloprogin]; 47.1
COc1cc2c(cc1NS(=O)(=O)c1ccc(Br)cc1C)n(C)c(=O)n2C [OF-1]; 88.3
O=C(c1ccc(C(=O)N2CCC(N3CCCC3)CC2)c(Nc2ccccc2)c1)N1CCC(N2CCCC2)CC1 [UNC1215]; 105
CC(C)(C)c1cc(C(C)(C)C)c(NC(=O)c2c[nH]c3ccccc3c2=O)cc1O [ivacaftor]; 86.8
CN[C@@H](C)C(=O)N[C@H]1CCCC[C@H]2CC[C@@H](C(=O)N[C@@H](c3ccccc3)c3cn(CCCCc4ccc(CCCCn5cc([C@@H](NC(=O)[C@@H]6CC[C@@H]7CCCC[C@H](NC(=O)[C@H](C)NC)C(=O)N76)c6ccccc6)nn5)cc4)nn3)N2C1=O [SM-164]; 99.7

* * *

# Lookup of reported cell viability keyed by entry
# Tested on: HepG2
# assay_info: cell viability relative to DMSO; higher = less toxic
# details: 72 h; 1 nM
quantity_measured: cell viability (%)

CC(C)[C@]12O[C@H]1[C@@H]1O[C@]13[C@]1(O[C@H]1C[C@H]1C4=C(CC[C@@]13C)C(=O)OC4)[C@@H]2O [triptolide]; 79.4
O=C(NCc1ccc(OC(F)(F)F)cc1)C1c2ccccc2C(=O)N1C1CCOCC1 (centres undefined); 107
O=C(CCCN1CCC2(CC1)C(=O)N(Cc1cccc(F)c1)CN2c1ccccc1)c1ccc(F)cc1; 94.6
CC[C@@]1(O)C(=O)OCc2c1cc1n(c2=O)Cc2cc3cc(O)ccc3nc2-1 [10-hydroxycamptothecin]; 102

* * *

# System: U2OS
# assay_info: cell viability relative to DMSO; higher = less toxic
# details: 72 h; 10 nM
quantity_measured: cell viability (%)

Cc1cc(C)cc(NC(=O)Cc2ccc(OC(C)(C)C(=O)O)cc2)c1; 95.7
CC(=O)N(CC(O)CN(C(C)=O)c1c(I)c(C(=O)NCC(O)CO)c(I)c(C(=O)NCC(O)CO)c1I)c1c(I)c(C(=O)NCC(O)CO)c(I)c(C(=O)NCC(O)CO)c1I (configuration not stated); 101
CC(=O)N[C@@H](CSSC[C@H](NC(C)=O)C(=O)O)C(=O)O; 96.2
CCCCCCCCCCC(=O)O[C@H]1CC[C@H]2[C@@H]3CCC4=CC(=O)CC[C@]4(C)[C@H]3CC[C@]12C [Testosterone (undecanoate)]; 94.4
Cc1ccc(-c2ccc(F)cc2COc2ccc(CCC(=O)O)cc2)cc1; 101
Cc1cccc(C)c1NC(=O)c1ccc(N)cc1 [ameltolide]; 103
C[C@@H](O)[C@H]1C(=O)N2C(C(=O)O)=C(S[C@@H]3CN[C@H](C(=O)N(C)C)C3)[C@H](C)[C@H]12; 102

* * *

# Tested on: U2OS
# assay_info: relative viability EC50 (midpoint between 100% and the lowest measured viability); higher = less toxic
# details: 72 h
Recorded relative viability EC50, one value per entry.
quantity_measured: relative viability EC50

Cc1cc(C)cc(OCC2CNC(=O)O2)c1 (stereo not given); > 10 µM
CC(C)(c1ccc(O)cc1)c1ccc(O)cc1; > 10 µM
[NH-]c1c[n+](N2CCOCC2)no1; > 10 µM
O=C(Nc1cc(C(F)(F)F)ccc1O)Nc1cc(C(F)(F)F)ccc1O; > 10 µM
CCNC(=O)c1noc(-c2cc(C(C)C)c(O)cc2O)c1-c1ccc(CN2CCOCC2)cc1; 0.012 µM

* * *

# System: Caco-2
# assay_info: cell viability relative to DMSO; higher = less toxic
# details: 72 h; 100 nM
quantity_measured: cell viability (%)

O=S(=O)(F)Cc1ccccc1 [phenylmethylsulfonyl-fluoride]; 103
CC(=O)NCCCS(=O)(=O)O [acamprosate]; 101
Cc1cc(Nc2ncnc3ccc(NC4=NC(C)(C)CO4)cc23)ccc1Oc1ccn2ncnc2c1 [tucatinib]; 99.8
Cc1ccc2c(c1CCC(=O)O)CC[C@@H](NS(=O)(=O)c1ccc(Cl)cc1)C2 [terutroban]; 100
O=P1(NCCCl)OCCCN1CCCl (stereo not given) [ifosfamide]; 94.1

* * *

# Test system: A549-ACE2
# assay_info: drug-induced phospholipidosis relative to tamoxifen; higher = more phospholipidosis
# details: 0.833333 µM; 72 h
Attribute: drug-induced phospholipidosis
quantity_measured: drug-induced phospholipidosis

OCc1cc(C(O)CNCCCCCCOCCCCc2ccccc2)ccc1O (centres undefined) [salmeterol]; 1.57%
CC/C(=C(\c1ccc(O)cc1)c1ccc(OCCN(C)C)cc1)c1ccccc1 [afimoxifene]; 4.34%
O=C(c1ccc(OCCN2CCCCC2)cc1)c1c(-c2ccc(O)cc2)sc2cc(O)ccc12 [raloxifene]; 2.6%
O=C(CCCN1CCC2(CC1)C(=O)N(Cc1cccc(F)c1)CN2c1ccccc1)c1ccc(F)cc1 [3'-fluorobenzylspiperone]; 1.05%

* * *

# cell viability per record follows
# Tested on: Vero E6
# assay_info: cell viability relative to DMSO; higher = less toxic
# details: 72 h; 100 nM
quantity_measured: cell viability (%)

COc1ccc(C2CNC(=O)NC2)cc1O[C@H]1C[C@@H]2CC[C@H]1C2; 100
O=C/C=C/c1ccccc1; 96.7
Cc1ccc(NC(=O)c2ccc(CN3CCN(C)CC3)cc2)cc1Nc1nc(-c2cccnc2)cs1; 101
COc1cc2nc(N3CCCN(C)CC3)nc(NC3CCN(Cc4ccccc4)CC3)c2cc1OC; 99.7
CNC(=O)c1cc(Oc2ccc(NC(=O)Nc3cc(C(C)(C)C)nn3-c3ccc4ncccc4c3)c(F)c2)ccn1; 102
Cc1coc2c1C(=O)C(=O)c1c-2ccc2c1CCCC2(C)C; 103
CCCCOC(=O)c1ccc(N)cc1; 96.3
C[C@H](CCC(=O)O)[C@H]1CC[C@H]2[C@@H]3CC[C@@H]4C[C@H](O)CC[C@]4(C)[C@H]3C[C@H](O)[C@]12C; 102
CN(C(=O)CCCOc1ccc2[nH]c(=O)ccc2c1)C1CCCCC1 [cilostamide]; 89.8

* * *

# Test system: Vero E6
# assay_info: cell viability relative to DMSO; higher = less toxic
# details: 72 h; 100 nM
quantity_measured: cell viability (%)

C=CC1=C(C)c2cc3[nH]c(cc4nc(cc5[nH]c(cc1n2)c(C)c5CCC(=O)O)C(CCC(=O)O)=C4C)c(C)c3C=C; 110
COC(=O)c1c(C)[nH]c(C)c1C(=O)c1ccccc1Cc1ccccc1; 98
C[C@]12CC[C@H]3[C@@H](CC[C@@]45O[C@@H]4C(O)=C(C#N)C[C@]35C)[C@@H]1CC[C@@H]2O; 92.8
O=C(COP(=O)(O)O)[C@@H](O)[C@H](O)[C@H](O)COP(=O)(O)O; 102
COc1nccc(-c2c(-c3ccc(F)cc3)ncn2[C@H]2CC[C@H](O)CC2)n1; 92.7
COc1cc2c(cc1OC)-c1c/c(=N\c3c(C)cc(C)cc3C)n(C)c(=O)n1CC2; 97
Cc1ccc(-c2ccc(F)cc2COc2ccc(CCC(=O)O)cc2)cc1; 100
NC(=O)c1ncn([C@@H]2O[C@H](CO)[C@@H](O)[C@H]2O)c1N; 100

* * *

Recorded cell viability, one value per entry.
# Test system: Vero E6
# assay_info: cell viability relative to DMSO; higher = less toxic
# details: 72 h; 10000 nM
quantity_measured: cell viability (%)

O=C(CCCN1CCC2(CC1)C(=O)N(Cc1cccc(F)c1)CN2c1ccccc1)c1ccc(F)cc1; 62.9
CCC(C)(CN(C)C)OC(=O)c1ccccc1 (stereo not drawn); 100
OCc1cc(C(O)CNCCCCCCOCCCCc2ccccc2)ccc1O (stereo not drawn); 97.5
C/C(O)=C(\C#N)C(=O)Nc1cc(Br)ccc1Br; 105
Nc1nc(=O)c2nc(CNc3ccc(C(=O)N[C@@H](CCC(=O)O)C(=O)O)cc3)cnc2[nH]1; 92.8
C/C(=C\C(=O)Nc1ccccc1C(=O)O)c1ccc2ccccc2c1; 105
COC(=O)[C@@H](N)CS; 101
C[C@]12CCC(=O)C=C1CC[C@@H]1[C@@H]2[C@@H](O)C[C@@]2(C)[C@H]1CC[C@]2(O)C(=O)COC(=O)CCC(=O)O [hydrocortisone-hemisuccinate]; 102

* * *

# Tested on: A549-ACE2
# assay_info: drug-induced phospholipidosis relative to tamoxifen; higher = more phospholipidosis
# details: 6.66667 µM; 48 h
quantity_measured: drug-induced phospholipidosis (%)

CCN(CC)C(=S)S [ditiocarb-sodium-trihydrate]; 0.97
O=C(CCCN1CCC2(CC1)C(=O)N(Cc1cccc(F)c1)CN2c1ccccc1)c1ccc(F)cc1; 60
CC/C(=C(\c1ccc(O)cc1)c1ccc(OCCN(C)C)cc1)c1ccccc1; 74.8
OCc1cc(C(O)CNCCCCCCOCCCCc2ccccc2)ccc1O (centres undefined); 52.9
